# Tested on: cellular components in the CP microenvironment
# Experiment Description: Cellular selectivity of phage clones: one-way ANOVA and Tukey-Kramer comparison of MCC of all cell markers
# Assay type: in vivo, mouse
# Experimental Setup: statistically significant selectivity for a single cellular component in CP
# Description: Immunofluorescence (IF). Post ex vivo imaging, mouse pancreata were submerged in Neg-50 Frozen Section Medium (Thermo Scientific, Waltham, Massachusetts, United States of America) and snap-frozen over liquid nitrogen vapor. […] Statistical analysis. […] All data presented are expressed as mean+standard error of at least three independent measurements. […]

>  <Substance>
KTYVPTT (displayed on phage)

>  <Corresponding Cellular Components>
aPSC

$$$$
>  <Substance>
SNSQDLH (displayed on phage)

>  <Corresponding Cellular Components>
Macrophage

$$$$
>  <Substance>
MDLSLKP (displayed on phage)

>  <Corresponding Cellular Components>
ECM

$$$$
>  <Substance>
SLTNSSF (displayed on phage)

>  <Corresponding Cellular Components>
Macrophage

$$$$

---

# Test system: caerulein-induced CP mice (inflamed pancreas) versus healthy mice
# Experiment Description: In vivo validation of individual phage clones: ex vivo IVIS fluorescence of organs after co-injection of targeting phage (VT680) and wild type M13Ke phage (VT750)
# Parameters: species or system mouse (C57BL/6J)
# Experimental Setup: Pancreas
CP-to-Healthy Ratio (fold change of specificity ratio) less than 2 is criterion met; CP-to-Healthy Ratio (fold change of specificity ratio) greater than or equal to 2 is criterion not met.

Please let me know if HSGLNKQ (displayed on phage) [7-mer peptide, candidate phage clone selected by motif clustering analysis] shows CP-to-Healthy Ratio (fold change of specificity ratio) below 2.
criterion met

Please let me know if KTYVPTT (displayed on phage) shows CP-to-Healthy Ratio (fold change of specificity ratio) below 2.
criterion met

Please let me know if SANITNL (displayed on phage) [7-mer peptide, candidate phage clone selected by replicability between libraries] shows CP-to-Healthy Ratio (fold change of specificity ratio) below 2.
criterion met

Please let me know if SNSQDLH (displayed on phage) shows CP-to-Healthy Ratio (fold change of specificity ratio) below 2.
criterion not met

Please let me know if SLPLGPM (displayed on phage) [7-mer peptide, candidate phage clone from Groups 2 and 3] shows CP-to-Healthy Ratio (fold change of specificity ratio) below 2.
criterion met

Please let me know if HPYSPLR [7-mer peptide, candidate phage clone from Groups 2 and 3] shows CP-to-Healthy Ratio (fold change of specificity ratio) below 2.
criterion met

Please let me know if MDLSLKP (displayed on phage) shows CP-to-Healthy Ratio (fold change of specificity ratio) below 2.
criterion met

Please let me know if SLTNSSF (displayed on phage) shows CP-to-Healthy Ratio (fold change of specificity ratio) below 2.
criterion not met

---

# Test System: F4/80 (mouse) (UniProt Q61549)
# Experiment Description: IF colocalization (JACoP) of VT680 phage with marker, CP mouse pancreas sections
mean Manders' correlation coefficient (MCC), fraction of phage overlapping cell marker less than 0.4 is Criterion met; mean Manders' correlation coefficient (MCC), fraction of phage overlapping cell marker greater than or equal to 0.4 is Criterion not met.

Please let me know if KTYVPTT (SEQ ID NO: 14) phage clone (peptide) shows mean Manders' correlation coefficient (MCC), fraction of phage overlapping cell marker below 0.4.
Criterion met

Please let me know if SLPLGPM (SEQ ID NO: 26) phage clone (peptide) shows mean Manders' correlation coefficient (MCC), fraction of phage overlapping cell marker below 0.4.
Criterion not met

Please let me know if MDLSLKP (SEQ ID NO: 19) phage clone (peptide) shows mean Manders' correlation coefficient (MCC), fraction of phage overlapping cell marker below 0.4.
Criterion not met

Please let me know if MNSIAIP (SEQ ID NO: 20) phage clone (peptide) shows mean Manders' correlation coefficient (MCC), fraction of phage overlapping cell marker below 0.4.
Criterion met

Please let me know if SNSQDLH (SEQ ID NO: 28) phage clone (peptide) shows mean Manders' correlation coefficient (MCC), fraction of phage overlapping cell marker below 0.4.
Criterion not met
